- target_entity: Muscarinic acetylcholine receptor M2 (Homo sapiens)
- assay_method_text: Displacement of [3H]NMS from human recombinant muscarinic receptor M2 expressed in […] cell membranes measured after 3 hrs by radioligand competition binding assay
measured_property: Ki (nM)

P = Cc1cc(/C=C/C=C/c2ccc(N(C)C)cc2)cc(C)[n+]1CCN1CCN(CCCCC2CCN(CC(=O)N3c4ccccc4NC(=O)c4ccccc43)CC2)CC1
Q = NCCNC(=O)CCc1cn(CCCCC2CCN(CC(=O)N3c4ccccc4NC(=O)c4ccccc43)CC2)cn1
Between P and Q , which one has the lower reported Ki value? Please reply using the label of the selected record.
Q
(Q: 0.589 nM, P: 3 nM)

Entry source: BindingDB's records for doi:10.1039/d0md00137f
